# System: HepG2
# assay_remarks: cytotoxicity call (relative viability < 0.9)
# recorded_conditions: 10 µM
The campaign covered roughly 39,000 compounds. About 3,300 (8.5%) were called active. Shown is part of a subset that was picked to be rich in actives.
Your response should consist of one outcome taken from TRUE = active, FALSE = inactive

[in] Would you mind telling me which call this test gave `Cc1ccc(S(=O)(=O)N(C)C[C@H]2Oc3ccc(NC(=O)Nc4ccc(C(F)(F)F)cc4)cc3CC(=O)N([C@H](C)CO)C[C@@H]2C)cc1` ?
[out] FALSE

[in] `C[C@@H]1CN([C@H](C)CO)S(=O)(=O)c2ccc(C#CC3CCCC3)cc2O[C@@H]1CN(C)C(=O)Cc1ccncc1` , same question.
[out] FALSE

[in] One more molecule: `Cc1ccc(S(=O)(=O)N(C)C[C@H]2Oc3ccc(NC(=O)Nc4ccc(C(F)(F)F)cc4)cc3CC(=O)N([C@H](C)CO)C[C@H]2C)cc1`
[out] TRUE

[in] For `N=C(N)Nc1nc(=O)c2ccccc2s1` then?
[out] FALSE

[in] Likewise for CCC(=O)OCC(=O)C1(OC(=O)CC)C(C)CC2C3CCC4=CC(=O)C=CC4(C)C3(F)C(O)CC21C (stereo not drawn) ?
[out] FALSE

[in] Also O=C(N[C@@H]1CC=CC[C@H](CC(=O)N(CCO)Cc2ccccc2)C(=O)NCC(c2ccccc2)OC1=O)OCC1c2ccccc2-c2ccccc21 (stereo partly drawn) ?
[out] FALSE

[in] And `CSc1cccc2sc(Nc3ccc(Cl)cc3)nc12` ?
[out] FALSE

[in] Same question for `Cc1noc(C)c1NC(=O)N(C)C[C@H]1Oc2ccc(NS(C)(=O)=O)cc2C(=O)N([C@H](C)CO)C[C@H]1C` please.
[out] FALSE

* * *

# System: HepG2
# assay_remarks: cytotoxicity call (relative viability < 0.9)
# recorded_conditions: 10 µM
Screen size: about 39,000 compounds; about 3,300 (8.5%) were called active. The full list was thinned out, with actives kept by preference.
// classify into 1 (yes) (active), 0 (no) (inactive)

[in] # fetch the recorded call for `CCCC(=O)Nc1ccc2c(c1)C(=O)N(C)C[C@@H](OC)[C@H](C)CN(S(=O)(=O)c1cn(C)cn1)[C@H](C)CO2` here
[out] 0 (no)

[in] Try this compound too: `Nc1ccccc1C(=O)N[C@H]1CCCCNC1=O`
[out] 0 (no)

[in] And the next one, `COc1cccc(S(=O)(=O)N2C[C@H](O)COC[C@H]3O[C@@H](CC(=O)N4CCOCC4)CC[C@@H]32)c1` ?
[out] 0 (no)

[in] Now this one: `O=C(CC(=O)N1CCOCC1)N1CCOCC1`
[out] 0 (no)

[in] Same again, this time with `COc1ccc2c3c(n(c2c1)C)[C@H](CO)N(C[C@]13CCN(CC1)C(=O)Nc1cccc(c1)F)C(=O)CN1CCOCC1`
[out] 0 (no)

[in] Here is the next compound: `C[C@@H]1CCCCO[C@@H](CN(C)Cc2ccccc2)[C@@H](C)CN([C@H](C)CO)C(=O)c2cc(NC(=O)Nc3ccc(C(F)(F)F)cc3)ccc2O1`
[out] 1 (yes)

[in] For `C[C@H]1CN([C@@H](C)CO)C(=O)CCCn2nncc2CO[C@@H]1CN(C)C(=O)CCCN(C)C` then?
[out] 0 (no)

[in] Then this compound: `C[C@@H]1CCCCO[C@@H](CN(C)C(=O)c2ccncc2)[C@@H](C)CN([C@H](C)CO)C(=O)c2cc(NC(=O)NC3CCCCC3)ccc2O1`
[out] 0 (no)

[in] Same thing, different compound: `C[C@H](CO)N1C[C@H](C)[C@@H](CN(C)C(=O)Nc2ccc(F)cc2)Oc2c(NS(C)(=O)=O)cccc2C1=O`
[out] 0 (no)

[in] Moving on to the next compound: `C[C@@H]1CN([C@@H](C)CO)C(=O)c2cc(NS(=O)(=O)c3cn(C)cn3)ccc2O[C@@H](C)CCCCO[C@H]1CN(C)C(=O)Nc1cccc2ccccc12`
[out] 0 (no)

[in] Queued: `Cc1ccc(S(=O)(=O)Nc2ccc3c(c2)CC(=O)N([C@H](C)CO)C[C@H](C)[C@@H](CN(C)S(=O)(=O)c2ccccc2)O3)cc1`
[out] 0 (no)

[in] Quick one: `COCC(=O)N1CC[C@@H](O)[C@@H]1Cc1cnn(C)c1`
[out] 0 (no)

[in] Now this one: `Cc1ccc(S(=O)(=O)Nc2ccc3c(c2)C(=O)N([C@@H](C)CO)C[C@H](C)[C@@H](CN(C)Cc2ccc(Cl)c(Cl)c2)OCCCC[C@H](C)O3)cc1`
[out] 1 (yes)

[in] Would you kindly repeat that for `Cc1ccc(S(=O)(=O)Nc2ccc3c(c2)C(=O)N([C@H](C)CO)C[C@H](C)[C@H](CN(C)Cc2ccc(Cl)c(Cl)c2)OCCCC[C@@H](C)O3)cc1` ?
[out] 1 (yes)

[in] Next record, please: `NNC(=O)CCCCCC(=O)NO`
[out] 0 (no)

[in] Would you kindly repeat that for `NNC(=O)CCCCCCC(=O)NO` ?
[out] 0 (no)

[in] Now consider `CN1C(=O)c2cc(NC(=O)Nc3ccccc3F)ccc2OC[C@H]2O[C@@H](CC(=O)NCc3ccc(-c4ccccc4)cc3)CC[C@@H]21` .
[out] 0 (no)

[in] Try this compound too: `CC(=O)O[C@H]1CC[C@]2(C)[C@H]3CC[C@]4(C)C(=CC(=O)O[C@H]4c4ccoc4)[C@]3(C)[C@H](OC(C)=O)C[C@H]2C1(C)C`
[out] 0 (no)

[in] // next record `C[C@H]1CCCCO[C@H](CN(C)C(=O)Nc2cccc3ccccc23)[C@@H](C)CN([C@@H](C)CO)C(=O)c2cc(NS(=O)(=O)c3cn(C)cn3)ccc2O1`
[out] 0 (no)

[in] Let us now turn to `CCOC(=O)c1c(CN2CCN(c3ccccc3C)CC2)n(-c2ccccc2)c2cc(Br)c(O)cc12`
[out] 0 (no)

[in] Also `C[C@@H]1CCCCO[C@@H](CN(C)C(=O)Nc2cccc3ccccc23)[C@H](C)CN([C@@H](C)CO)C(=O)c2cc(NS(=O)(=O)c3cn(C)cn3)ccc2O1` , if possible.
[out] 0 (no)

[in] Please do the same for `C[C@H]1CCCCO[C@@H](CN(C)C(=O)Nc2cccc3ccccc23)[C@@H](C)CN([C@@H](C)CO)C(=O)c2cc(NS(=O)(=O)c3cn(C)cn3)ccc2O1` as well.
[out] 1 (yes)

[in] And what about the compound `COc1ccc2c3c([nH]c2c1)[C@@H](CO)N(CC1CCCCC1)C[C@]13CCN(CC1)C(=O)NC1CCCC1` ?
[out] 0 (no)

[in] Field entry: `Cc1ccc(S(=O)(=O)N[C@@H]2CC[C@@H](CCNC(=O)CN3CCOCC3)O[C@@H]2CO)cc1`
[out] 0 (no)

[in] Check `C[C@@H]1CCCCO[C@@H](CN(C)C(=O)Nc2cccc3ccccc23)[C@H](C)CN([C@H](C)CO)C(=O)c2cc(NS(=O)(=O)c3cn(C)cn3)ccc2O1` too.
[out] 0 (no)

[in] // repeat for `C[C@@H]1CCCCO[C@H](CN(C)Cc2ccccc2)[C@H](C)CN([C@H](C)CO)C(=O)c2cc(NC(=O)Nc3ccc(C(F)(F)F)cc3)ccc2O1` and report
[out] 1 (yes)

[in] Please give the result for `C[C@@H]1CN([C@@H](C)CO)C(=O)c2cc(NC(=O)CCN3CCOCC3)ccc2O[C@H]1CN(C)Cc1ccc2c(c1)OCO2` too.
[out] 0 (no)

[in] Continue with `CN1CCN(C(=O)C[C@@H]2CC[C@H]3[C@@H](COC[C@H](O)CN3Cc3ccc(Oc4ccccc4)cc3)O2)CC1`
[out] 0 (no)

[in] Then what about the compound `C[C@@H]1CCCCO[C@H](CN(C)Cc2ccncc2)[C@H](C)CN([C@@H](C)CO)C(=O)c2cc(NC(=O)CCC(F)(F)F)ccc2O1` ?
[out] 0 (no)

[in] Repeat with `CN1C[C@]2(CCN(C(=O)c3cn(CCN4CCNCC4)nn3)C2)OC1=O`
[out] 0 (no)
